Every entry's value here was drawn from patent US7135466B2.

Hi there, I'd appreciate the recorded pIC50 for every entry that follows.
# TARGET UNDER TEST: c-kit (Homo sapiens, UniProt P10721)
# Construct: MO7e (human megakaryocytic leukemia cell line) which had been arrested for 20 hr; endogenous in cells; host or cells: MO7e human megakaryocytic leukemia cell line
# Sequence (P10721 26-976): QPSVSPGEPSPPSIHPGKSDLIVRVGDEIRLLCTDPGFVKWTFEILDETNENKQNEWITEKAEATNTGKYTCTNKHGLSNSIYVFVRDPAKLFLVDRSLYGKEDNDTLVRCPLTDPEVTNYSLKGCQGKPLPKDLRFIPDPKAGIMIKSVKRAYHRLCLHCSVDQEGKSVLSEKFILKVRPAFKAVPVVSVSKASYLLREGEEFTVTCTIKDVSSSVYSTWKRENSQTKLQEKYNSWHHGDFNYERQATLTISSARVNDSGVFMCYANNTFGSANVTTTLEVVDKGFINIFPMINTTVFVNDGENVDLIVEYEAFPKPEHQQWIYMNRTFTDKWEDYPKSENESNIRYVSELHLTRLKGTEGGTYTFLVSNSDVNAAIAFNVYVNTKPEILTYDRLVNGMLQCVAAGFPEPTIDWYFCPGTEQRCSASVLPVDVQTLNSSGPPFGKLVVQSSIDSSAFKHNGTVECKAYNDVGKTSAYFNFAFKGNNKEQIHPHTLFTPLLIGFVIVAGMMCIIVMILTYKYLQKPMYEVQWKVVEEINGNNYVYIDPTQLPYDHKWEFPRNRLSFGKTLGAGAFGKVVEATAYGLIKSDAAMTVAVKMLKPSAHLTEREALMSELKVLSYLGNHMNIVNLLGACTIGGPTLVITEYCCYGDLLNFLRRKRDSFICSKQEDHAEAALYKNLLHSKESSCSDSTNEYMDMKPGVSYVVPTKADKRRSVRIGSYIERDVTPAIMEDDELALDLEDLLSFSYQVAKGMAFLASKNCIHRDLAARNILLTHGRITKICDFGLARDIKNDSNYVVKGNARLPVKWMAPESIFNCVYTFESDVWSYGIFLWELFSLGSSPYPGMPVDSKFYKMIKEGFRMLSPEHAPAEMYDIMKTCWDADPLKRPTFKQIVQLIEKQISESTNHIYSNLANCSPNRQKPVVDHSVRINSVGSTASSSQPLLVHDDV
# METHOD NOTES: Inhibitory activity against c-kit autophosphorylation (MO7e cells, h-SCF)
# Type: cell-based
# COND: MO7e cells, 50 ng/ml h-SCF; read-out: c-kit IC50
When answering, recall that pIC50 equals minus log10 of the concentration in mol/L, and write that number alone.

Entry `CCCCN(CCCC)CCNC(=O)Nc1ccc(Oc2ccnc3cc(OC)c(OC)cc23)cc1OC` : reported pIC50 = ? 6.24

Entry `COc1cc(Oc2ncnc3cc(OC)c(OC)cc23)ccc1NC(=O)NCCN1CCCC1` : reported pIC50 = ? 6.65

Entry COc1cc2ncnc(Oc3ccc(NC(=O)NC4CCN(Cc5ccccc5Cl)C4)cc3)c2cc1OC (stereo not shown) : reported pIC50 = ? 7.08
